# TARGET_UNDER_TEST: T1, PDZD7 second PDZ domain with its C-terminal extension (PDZ2ext construct; G206 to G313) (mouse, UniProt E9Q9W7-1 206-313)
# T1 construct: also called PDZ2ext WT; source: E. coli BL21 DE3, purified (GSTrap, on-column TEV cleavage, SEC); not shown: GST, N-terminal, cleaved
# T1 sequence (looked up): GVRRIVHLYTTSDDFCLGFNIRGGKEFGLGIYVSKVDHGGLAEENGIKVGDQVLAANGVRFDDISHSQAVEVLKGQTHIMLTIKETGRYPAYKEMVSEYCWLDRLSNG
# TEST_DETAILS: other fluorescence titration; tryptophan fluorescence (excitation 295 nm) of PDZ2ext at 5 µM in Tris HCl pH 7.5 (50 mM) on progressive addition of ADGRV1pbm peptide; apparent Kd
# PARTICULARS: both partners purified

BINDER: VELRRIPIADTHL (ADGRV1, last 13 residues, free C-terminal carboxylate as printed (-COOH); The other ADGRV1 constructs are murine) [ADGRV1pbm peptide (last 13 residues of ADGRV1, with its PDZ binding motif)]
Kd / µM: 3.1
